# target_of_assay: ITK (Homo sapiens)
# Construct: purchased Signalchem I13-11G-10
# protocol: Inhibitory activity against ITK, ADP-Glo Kinase system (Promega)
# Assay type: biochemical
# condition_parameters: 1mM ATP; read-out: ITK IC50(nM) 1mM ATP
readout_name: IC50

# compound, IC50
rows = [
    ("C/C=C/C(=O)N1CC[C@H](Oc2nc(Nc3ncc(C)s3)cc3c2ccn3CC(C)C)C1", "> 500 nM"),
    ("C=CC(=O)N1CCCC12CCC(Oc1nc(Nc3ncc(C)s3)cc3c1ccn3CC(C)C)C2 (stereo not shown)", "> 500 nM"),
]

Write down the reported IC50 (system: ITK (Homo sapiens)) of C=CC(=O)Nc1cc(-c2nc(Nc3ncc(C)s3)cc3c2ccn3CC(C)C)c(F)cc1F
20 to 100 nM

Fill in IC50 for C=CC(=O)N1CC[C@H](Oc2nc(Nc3ncc(C)s3)cc3c2ccn3[C@H](C)C(F)(F)F)C1 tested with ITK (Homo sapiens).
≤ 20 nM

State IC50 (ITK (Homo sapiens)) of C=CC(=O)N1C[C@H](F)[C@H](Oc2nc(Nc3ncc(C#N)s3)cc3c2ccn3CC(C)C)C1 .
≤ 20 nM

Answer briefly: IC50 recorded on ITK (Homo sapiens) for C=CC(=O)N1C[C@H](F)[C@H](Oc2nc(Nc3ncc(C(=O)NC)s3)cc3c2ccn3CC(C)C)C1
≤ 20 nM

Report value only: IC50, ITK (Homo sapiens), C=CC(=O)N1C[C@H](F)[C@H](Oc2nc(Nc3ncc(C)s3)cc3c2ccn3CC(F)(F)F)C1
≤ 20 nM

* * *

# target_of_assay: BTK (Homo sapiens)
# Construct: purchased Signalchem B10-10H
# Sequence (Q06187 whole entry): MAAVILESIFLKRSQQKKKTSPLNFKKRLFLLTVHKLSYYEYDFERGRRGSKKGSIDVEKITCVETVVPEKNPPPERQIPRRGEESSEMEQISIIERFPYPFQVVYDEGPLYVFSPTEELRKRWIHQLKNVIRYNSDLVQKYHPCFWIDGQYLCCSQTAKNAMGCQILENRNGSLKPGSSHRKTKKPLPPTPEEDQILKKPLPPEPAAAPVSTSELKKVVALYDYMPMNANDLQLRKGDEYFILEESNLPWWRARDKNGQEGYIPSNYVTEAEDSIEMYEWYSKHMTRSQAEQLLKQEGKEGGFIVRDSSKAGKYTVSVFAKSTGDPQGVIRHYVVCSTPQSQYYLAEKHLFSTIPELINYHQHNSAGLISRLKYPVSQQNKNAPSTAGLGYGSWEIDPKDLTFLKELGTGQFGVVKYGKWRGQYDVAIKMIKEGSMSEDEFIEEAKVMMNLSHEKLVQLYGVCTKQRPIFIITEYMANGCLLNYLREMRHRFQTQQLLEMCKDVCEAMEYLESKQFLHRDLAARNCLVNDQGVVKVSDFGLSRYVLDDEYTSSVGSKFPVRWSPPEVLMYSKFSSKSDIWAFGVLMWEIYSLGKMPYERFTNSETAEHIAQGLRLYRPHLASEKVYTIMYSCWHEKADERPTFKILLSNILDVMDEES
# protocol: Inhibitory activity against BTK, ADP-Glo Kinase system (Promega)
# Type: biochemical
# condition_parameters: 1mM ATP; read-out: BTK IC50(nM) 1mM ATP
readout_name: IC50

For orientation, consider the following solved cases.
# compound, assay_value
rows = [
    ("C=CC(=O)N1C[C@@H](F)[C@H](Oc2nc(Nc3ncc(C)s3)cc3c2ccn3CC(C)CC)C1 (stereo partly drawn)", "≤ 20 nM"),
    ("C=CC(=O)N1CC=C(c2nc(Nc3cc(C(F)(F)F)ncn3)cc3c2ccn3C(C)C)CC1", "20 to 100 nM"),
]

Let us move to another entry and its IC50.
// Input: C=CC(=O)Nc1cc(-c2nc(Nc3ncc(C)s3)cc3c2ccn3CC2CC2)c(F)cc1F . Output its IC50 only.
≤ 20 nM

* * *

# target_of_assay: ITK (Homo sapiens, UniProt Q08881)
# Construct: purchased Signalchem I13-11G-10
# Sequence (Q08881 whole entry): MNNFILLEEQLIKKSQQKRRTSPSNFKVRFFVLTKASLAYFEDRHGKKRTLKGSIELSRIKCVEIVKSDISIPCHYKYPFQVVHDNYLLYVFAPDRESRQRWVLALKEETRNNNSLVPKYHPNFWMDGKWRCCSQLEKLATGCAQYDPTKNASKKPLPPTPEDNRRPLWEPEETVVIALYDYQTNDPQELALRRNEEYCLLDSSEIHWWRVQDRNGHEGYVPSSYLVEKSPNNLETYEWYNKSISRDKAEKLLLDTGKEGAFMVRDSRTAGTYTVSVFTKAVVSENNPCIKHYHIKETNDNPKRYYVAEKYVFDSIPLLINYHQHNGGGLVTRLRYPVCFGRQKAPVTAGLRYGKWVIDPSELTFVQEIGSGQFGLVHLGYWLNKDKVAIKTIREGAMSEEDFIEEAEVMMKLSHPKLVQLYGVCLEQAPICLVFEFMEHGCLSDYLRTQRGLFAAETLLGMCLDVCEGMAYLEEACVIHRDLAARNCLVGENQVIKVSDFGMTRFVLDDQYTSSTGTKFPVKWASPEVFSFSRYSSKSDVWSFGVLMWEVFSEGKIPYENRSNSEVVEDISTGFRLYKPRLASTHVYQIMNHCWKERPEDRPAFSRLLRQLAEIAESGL
# protocol: Inhibitory activity against ITK, ADP-Glo Kinase system (Promega)
# Format: biochemical
# condition_parameters: 1mM ATP; read-out: ITK IC50(nM) 1mM ATP
readout_name: IC50

Use these answered entries as a reference point.
# molecule, readout_name, assay_value
measured = [
    ("C=CC(=O)N1CC[C@H](Oc2nc(Nc3ncc(C)s3)cc3c2ccn3CC(C)C)C1", "IC50", "≤ 20 nM"),
    ("C=CC(=O)N1CCC2(CC(Oc3nc(Nc4ncc(C)s4)cc4c3ccn4CC(C)C)C2)C1 (centres unmarked)", "IC50", "100 to 500 nM"),
    ("C=CC(=O)N1CC[C@H](Oc2nc(Nc3ncc(C)s3)cc3c2ccn3C)C1", "IC50", "≤ 20 nM"),
    ("C=CC(=O)N1C2C=C(c3nc(Nc4ncc(C)s4)cc4c3ccn4CC(C)C)CC1CC2 (centres unmarked)", "IC50", "≤ 20 nM"),
    ("C=CC(=O)Nc1cccc(-c2nc(Nc3ncc(C)s3)cc3c2ccn3CC(C)C)c1C", "IC50", "20 to 100 nM"),
    ("C=CC(=O)N1C[C@H](F)[C@H](Oc2nc(Nc3ncc(C)s3)cc3c2ccn3CCOC)C1", "IC50", "≤ 20 nM"),
]

Please report the measured IC50 for C=CC(=O)N1CCC[C@H](Oc2nc(Nc3ncc(C)s3)cc3c2ccn3C)C1
20 to 100 nM

Fill in reported IC50 for this entry: C=CC(=O)N1C2C=C(c3nc(Nc4ncc(C)s4)cc4c3ccn4C3CCCC3)CC1CC2 (centres unmarked)
≤ 20 nM

Report IC50, nothing else, for this molecule: C=CC(=O)N1CC[C@@H]1COc1nc(Nc2ncc(C)s2)cc2c1ccn2CC(F)(F)F
≤ 20 nM

For the molecule C=CC(=O)N1C2C=C(c3nc(Nc4ncc(C)s4)cc4c3ccn4CC3CC3)CC1CC2 (centres unmarked) , give its measured IC50 value.
≤ 20 nM

Provide only the value of recorded IC50 for C=CC(=O)N1CCC[C@H]1COc1nc(Nc2ncc(C)s2)cc2c1ccn2CC1CCCC1
20 to 100 nM

Assign IC50 to the following record: C=CC(=O)N1CC[C@H](Oc2nc(Nc3cccn(C)c3=O)cc3c2ccn3C(C)C)C1
> 500 nM

Give IC50 for the following molecule: C=CC(=O)N1CCC12CC(Oc1nc(Nc3ncc(C)s3)cc3c1ccn3C)C2 (centres unmarked)
≤ 20 nM

Provide IC50 value for the following molecule: C=CC(=O)N1CC[C@@H](Oc2nc(Nc3ncc(C)s3)cc3c2ccn3CC2CC2)C1
> 500 nM

Tell us which IC50 value is on record for C=CC(=O)N1CCC[C@H](Oc2nc(Nc3ncc(C)s3)cc3c2ccn3C2CCCC2)C1
20 to 100 nM

Fill in reported IC50 for this entry: C#CC(=O)N1CC[C@H](Oc2nc(Nc3ncc(C)s3)cc3c2ccn3CC(C)C)C1
≤ 20 nM

Give IC50 for the following molecule: C=CC(=O)N1C[C@H](F)[C@H](Oc2nc(Nc3ncc(C)s3)cc3c2ccn3CCCF)C1
≤ 20 nM

Give IC50 for C=CC(=O)N1C[C@@H](F)[C@H](Oc2nc(Nc3ncc(C)s3)cc3c2ccn3C)C1
≤ 20 nM

Output IC50 of C=CC(=O)N1C[C@H](F)[C@H](Oc2nc(Nc3ccn(C)n3)cc3c2ccn3CC(C)C)C1
> 500 nM

Give the reported IC50 for this molecule. C=CC(=O)N1CCC[C@@H]1COc1nc(Nc2ncc(C)s2)cc2c1ccn2C(C)C
20 to 100 nM
